METHOD NOTES: Antioxidant activity assessed as Cu2+ quenching activity
Type: functional
KSV for assorted molecules
PROPERTY MEASURED: KSV (×10³ /M)

[[record]]
molecule = "Oc1ccc(/N=C/c2ccccc2)cc1 [4-(BENZYLIDENEAMINO)PHENOL]"
value_reported = 3.49

[[record]]
molecule = "Oc1cccc(/N=C/C=C/c2ccccc2)c1"
value_reported = 2.8

[[record]]
molecule = "Oc1cccc(/N=C/c2ccccc2)c1 [3-(BENZYLIDENEAMINO)PHENOL]"
value_reported = 5.2

[[record]]
molecule = "Oc1ccc(/N=C/c2ccco2)cc1"
value_reported = 1.17


====

We begin with a simple list: items and their reported Ka.
METHOD NOTES: Binding affinity to Cu2+
Format: physicochemical
PROPERTY MEASURED: Ka (×10³ /M)

[[record]]
structure_smiles_string = "CN(C)c1ccc(/C=N/c2ccc(O)cc2)cc1"
measurement_unit = "×10³ /M"
value_reported = 3.05

[[record]]
structure_smiles_string = "Oc1ccc(/N=C/c2ccco2)cc1"
measurement_unit = "×10³ /M"
value_reported = 0.85

[[record]]
structure_smiles_string = "Oc1ccc(/N=C/c2ccccc2O)cc1"
measurement_unit = "×10³ /M"
value_reported = 4.43

[[record]]
structure_smiles_string = "Oc1cccc(/N=C/C=C/c2ccccc2)c1"
measurement_unit = "×10³ /M"
value_reported = 3.51

